Source: PubChem BioAssay AID2060891

test system: K98450-129-R-PDC complex spheroid growth, percent test/control; test: Anticancer human tumor K98450-129-R-PDC patient-derived colon adenocarcinoma cell line growth inhibition [RAS]; conditions: second compound 1 µM; first compound 0.0316 µM; stronger effect = lower value
A collection of compounds and their measured viability, T/C
Answer in %, number only, no unit symbol.

Supply recorded viability, T/C for CC(=O)OC12COC1CC(O)C1(C)C(=O)C(O)C3=C(C)C(OC(=O)C(O)C(NC(=O)OC(C)(C)C)c4ccccc4)CC(O)(C(OC(=O)c4ccccc4)C21)C3(C)C (centres undefined) + C=CC(=O)N1CCN(c2nc(OCC3CCCN3C)nc3c(F)c(-c4nc(N)cc(C)c4C(F)(F)F)c(Cl)cc23)C(C)C1 here.
26.3

---

test system: K98450-129-R-PDC complex spheroid growth, percent test/control; experiment: Anticancer human tumor K98450-129-R-PDC cell line growth inhibition [RAS]; details: second compound 0.1 µM; first compound 0.01 µM; stronger effect = lower value;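 also: luminescence used as a proxy for viable cell amount; spheroids exposed to agents for seven days before the viability readout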
viability, T/C values by entry
Response body: numeric value in %, unit text excluded.

Below are worked cases with known answers.
>  <compound>
C=CC(=O)N1CCN(c2nc(OCC3CCCN3C)nc3c(F)c(-c4nc(N)cc(C)c4C(F)(F)F)c(Cl)cc23)C(C)C1 (stereo not drawn) + C#Cc1c(F)ccc2cc(O)cc(-c3ncc4c(N5CC6CCC(C5)N6)nc(OCC56CCCN5CC(F)C6)nc4c3F)c12

>  <tested system>
K98450-129-R-PDC complex spheroid growth, percent test/control

>  <viability, T/C, %>
81.3

$$$$
>  <compound>
CCN1CCN(Cc2ccc(Nc3ncc(F)c(-c4cc(F)c5nc(C)n(C(C)C)c5c4)n3)nc2)CC1 + C#Cc1c(F)ccc2cc(O)cc(-c3ncc4c(N5CC6CCC(C5)N6)nc(OCC56CCCN5CC(F)C6)nc4c3F)c12

>  <tested system>
K98450-129-R-PDC complex spheroid growth, percent test/control

>  <viability, T/C, %>
100

$$$$

Now take the following compound into account.
Input CC(C)n1nc(-c2ccc3oc(N)nc3c2)c2c(N)ncnc21 + C=CC(=O)N1CCN(c2nc(OCC3CCCN3C)nc3c(F)c(-c4nc(N)cc(C)c4C(F)(F)F)c(Cl)cc23)C(C)C1 , output reported viability, T/C.
44.3

---

tested on: K98450-129-R-PDC complex spheroid growth, percent test/control; experiment: Anticancer human tumor K98450-129-R-PDC cell line growth inhibition [RAS]; conditions: second compound 1 µM; first compound 0.01 µM; stronger effect = lower value;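 also: luminescence used as a proxy for viable cell amount; spheroids exposed to agents for seven days before the viability readout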
quantity measured: viability, T/C (%)
Write the number in % without appending the unit.

Recorded viability, T/C, per entry:
>  <compound>
C=CC(=O)N1CCN(c2nc(OCC3CCCN3C)nc3c(F)c(-c4nc(N)cc(C)c4C(F)(F)F)c(Cl)cc23)C(C)C1 (stereo not drawn) + C#Cc1c(F)ccc2cc(O)cc(-c3ncc4c(N5CC6CCC(C5)N6)nc(OCC56CCCN5CC(F)C6)nc4c3F)c12

>  <value units>
%

>  <viability, T/C>
88.7

$$$$
>  <compound>
Nc1ccn(C2OC(CO)C(O)C2(F)F)c(=O)n1 (stereo not drawn) + C=CC(=O)N1CCN(c2nc(OCC3CCCN3C)nc3c(F)c(-c4nc(N)cc(C)c4C(F)(F)F)c(Cl)cc23)C(C)C1

>  <value units>
%

>  <viability, T/C>
25.1

$$$$
>  <compound>
CC(C)n1nc(-c2ccc3oc(N)nc3c2)c2c(N)ncnc21 + C=CC(=O)N1CCN(c2nc(OCC3CCCN3C)nc3c(F)c(-c4nc(N)cc(C)c4C(F)(F)F)c(Cl)cc23)C(C)C1

>  <value units>
%

>  <viability, T/C>
25

$$$$
>  <compound>
C=CC(=O)Nc1cc(Nc2nccc(-c3cn(C)c4ccccc34)n2)c(OC)cc1N(C)CCN(C)C + C#Cc1c(F)ccc2cc(O)cc(-c3ncc4c(N5CC6CCC(C5)N6)nc(OCC56CCCN5CC(F)C6)nc4c3F)c12

>  <value units>
%

>  <viability, T/C>
105

$$$$
>  <compound>
O=C(c1ccc(F)c(F)c1Nc1ccc(I)cc1F)N1CC(O)([C@@H]2CCCCN2)C1 + C#Cc1c(F)ccc2cc(O)cc(-c3ncc4c(N5CC6CCC(C5)N6)nc(OCC56CCCN5CC(F)C6)nc4c3F)c12

>  <value units>
%

>  <viability, T/C>
99.8

$$$$
>  <compound>
Nc1ccn(C2OC(CO)C(O)C2(F)F)c(=O)n1 (stereo not drawn) + C#Cc1c(F)ccc2cc(O)cc(-c3ncc4c(N5CC6CCC(C5)N6)nc(OCC56CCCN5CC(F)C6)nc4c3F)c12

>  <value units>
%

>  <viability, T/C>
94.7

$$$$

Supply reported viability, T/C belonging to this compound: CCN1CCN(Cc2ccc(Nc3ncc(F)c(-c4cc(F)c5nc(C)n(C(C)C)c5c4)n3)nc2)CC1 + C#Cc1c(F)ccc2cc(O)cc(-c3ncc4c(N5CC6CCC(C5)N6)nc(OCC56CCCN5CC(F)C6)nc4c3F)c12
99.5

Retrieve viability, T/C measured for O=C(c1ccc(F)c(F)c1Nc1ccc(I)cc1F)N1CC(O)([C@@H]2CCCCN2)C1 + C=CC(=O)N1CCN(c2nc(OCC3CCCN3C)nc3c(F)c(-c4nc(N)cc(C)c4C(F)(F)F)c(Cl)cc23)C(C)C1 and print it.
24.1

---

Attribute: viability, T/C
test system: K98450-129-R-PDC complex spheroid growth, percent test/control; assay: Anticancer human tumor K98450-129-R-PDC cell line growth inhibition [RAS]; details: second compound 0.000949 µM; first compound 0.1 µM; stronger effect = lower value;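 also: luminescence used as a proxy for viable cell amount; spheroids exposed to agents for seven days before the viability readout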
The reply should contain only the number, in %.

>  <molecule>
Nc1ccn(C2OC(CO)C(O)C2(F)F)c(=O)n1 (stereo not drawn) + CCn1c(-c2cccnc2C(C)OC)c2c3cc(ccc31)N1CCOC(CC(NC(=O)C(C(C)C)N(C)C(=O)C3(F)CCN(C(=O)C#CC(C)(C)N(C)C)CC3)C(=O)N3CCCC(N3)C(=O)OCC(C)(C)C2)C1

>  <numeric readout>
39.8

$$$$
>  <molecule>
C=CC(=O)N1CCN(c2nc(OCC3CCCN3C)nc3c(F)c(-c4nc(N)cc(C)c4C(F)(F)F)c(Cl)cc23)C(C)C1 (stereo not drawn) + CCn1c(-c2cc(N3CCN(C)CC3)cnc2C(C)OC)c2c3cc(ccc31)-c1csc(n1)CC(NC(=O)C1CC1C)C(=O)N1CCCC(N1)C(=O)OCC(C)(C)C2

>  <numeric readout>
44.4

$$$$
>  <molecule>
O=C(c1ccc(F)c(F)c1Nc1ccc(I)cc1F)N1CC(O)([C@@H]2CCCCN2)C1 + CCn1c(-c2cccnc2C(C)OC)c2c3cc(ccc31)N1CCOC(CC(NC(=O)C(C(C)C)N(C)C(=O)C3(F)CCN(C(=O)C#CC(C)(C)N(C)C)CC3)C(=O)N3CCCC(N3)C(=O)OCC(C)(C)C2)C1

>  <numeric readout>
42.2

$$$$
>  <molecule>
CC(C)n1nc(-c2ccc3oc(N)nc3c2)c2c(N)ncnc21 + CCn1c(-c2cc(N3CCN(C)CC3)cnc2C(C)OC)c2c3cc(ccc31)-c1csc(n1)CC(NC(=O)C1CC1C)C(=O)N1CCCC(N1)C(=O)OCC(C)(C)C2

>  <numeric readout>
70.7

$$$$
>  <molecule>
NC1c2ccccc2OC12CCN(c1cnc3c(N4CCCc5ncccc54)n[nH]c3n1)CC2 (stereo not drawn) + CCn1c(-c2cc(N3CCN(C)CC3)cnc2C(C)OC)c2c3cc(ccc31)-c1csc(n1)CC(NC(=O)C1CC1C)C(=O)N1CCCC(N1)C(=O)OCC(C)(C)C2

>  <numeric readout>
54.5

$$$$

Please supply the value of reported viability, T/C for the item CCC(CC)c1cc(NC2CCC(N)C2)n2nccc2n1 (stereo not drawn) + CCn1c(-c2cc(N3CCN(C)CC3)cnc2C(C)OC)c2c3cc(ccc31)-c1csc(n1)CC(NC(=O)C1CC1C)C(=O)N1CCCC(N1)C(=O)OCC(C)(C)C2
88

State, in one line, measured viability, T/C of CCC(CC)c1cc(NC2CCC(N)C2)n2nccc2n1 (stereo not drawn) + CCn1c(-c2cccnc2C(C)OC)c2c3cc(ccc31)N1CCOC(CC(NC(=O)C(C(C)C)N(C)C(=O)C3(F)CCN(C(=O)C#CC(C)(C)N(C)C)CC3)C(=O)N3CCCC(N3)C(=O)OCC(C)(C)C2)C1
72.7

Tell us which viability, T/C value is on record for CC1(O)CCCC1n1c(=O)c(C(F)F)cc2cnc(NC3CCN(S(C)(=O)=O)CC3)nc21 (stereo not drawn) + CCn1c(-c2cccnc2C(C)OC)c2c3cc(ccc31)N1CCOC(CC(NC(=O)C(C(C)C)N(C)C(=O)C3(F)CCN(C(=O)C#CC(C)(C)N(C)C)CC3)C(=O)N3CCCC(N3)C(=O)OCC(C)(C)C2)C1
64
